- Test system: K562;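 note: after 48 h exposure read by CellTiter-Glo luminescence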
- test.protocol: cell viability relative to vehicle control; higher = less cytotoxic
- test.settings: 10 µM; SRSF2 genotype: SRSF2 wt/wt
Counter-ions that a name gives are not always drawn.
Quick list: cell viability per entry.
Lab book: enter the figure in %, no units written.

Solved entries:
>>> measured_result("CCCC[N+]1(C)[C@@H]2CC(OC(=O)[C@H](CO)c3ccccc3)C[C@H]1[C@@H]1O[C@@H]12 (stereo partly specified) [Butylscopolamine bromide (Scopolamine butylb]")
97.8
>>> measured_result("Cc1cccc([C@H](C)c2c[nH]cn2)c1C")
98.5
>>> measured_result("COc1cc2c(cc1OC)C(Cc1ccc(O)c(Oc3cc4c(cc3OC)CCN(C)C4Cc3ccc(O)cc3)c1)N(C)CC2.[O-][Cl+3]([O-])([O-])O (stereo unspecified) [Liensinine diperchlorate]")
77.4
>>> measured_result("COC1=C[C@@H]2[C@@H]3Cc4ccc(OC)c(O)c4[C@]2(CCN3C)CC1=O [Sinomenine hydrochloride]")
97.9

Param readout= cell viability; system= K562; entry= CN1C(=O)COc2c(C(=O)NC3CN4CCC3CC4)cc(Cl)cc21 (stereo unspecified) [Azasetron HCl] ; returns value.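 Note: after 48 h exposure read by CellTiter-Glo luminescence.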
94.9

Param readout= cell viability; system= K562; entry= Fc1cc(F)c2c(c1)[C@H]1C=CC[C@H]1C(c1cccnc1)N2 (stereo partly specified) [Golgicide A] ; returns value.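 Note: after 48 h exposure read by CellTiter-Glo luminescence.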
32.3

Param readout= cell viability; system= K562; entry= CCN1CC2(OC(=O)c3ccccc3NC(C)=O)CCC(OC)C34C1C(CC23)C1(O)CC(OC)C2CC4C1(O)C2OC (stereo unspecified) [Lappaconite Hydrobromide] ; returns value.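 Note: after 48 h exposure read by CellTiter-Glo luminescence.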
88.2

Param readout= cell viability; system= K562; entry= CN1[C@@H]2C[C@@H](OC(=O)[C@H](CO)c3ccccc3)C[C@H]1[C@@H]1O[C@@H]12 [Scopolamine hydrobromide] ; returns value.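 Note: after 48 h exposure read by CellTiter-Glo luminescence.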
99.9

Param readout= cell viability; system= K562; entry= `COc1ccc(C=O)cc1O` ; returns value.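 Note: after 48 h exposure read by CellTiter-Glo luminescence.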
103

Param readout= cell viability; system= K562; entry= `Cc1cc(SCc2sc(-c3ccc(C(F)(F)F)c(F)c3)nc2C)ccc1OCC(=O)O` ; returns value.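 Note: after 48 h exposure read by CellTiter-Glo luminescence.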
105

Param readout= cell viability; system= K562; entry= `CCN1C[C@]2(COC)CC[C@H](OC)[C@]34C1[C@H]([C@H](OC)[C@H]23)[C@@]1(OC(C)=O)C[C@H](OC)[C@@]2(O)C[C@@H]4[C@@H]1[C@H]2OC(=O)c1ccc(OC)cc1` ; returns value.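 Note: after 48 h exposure read by CellTiter-Glo luminescence.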
87.5

Param readout= cell viability; system= K562; entry= COc1ccc(C(CN(C)C)C2(O)CCCCC2)cc1 (stereo unspecified) [Venlafaxine HCl] ; returns value.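 Note: after 48 h exposure read by CellTiter-Glo luminescence.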
98.7
